Exercise: state measured mortality at 1 µg/larva for each of the compounds provided.
Test system: rice stem borers (Chilo suppressalis Walker)
Protocol: Mortality test with rice stem borers by topical application method
Type: in vivo
Measurement Setup: 24 h
Procedure: Mortality test with rice stem borers (Chilo suppressalis Walker) by topical application method Using a microsyringe, 0.5 μl of the above solution was applied to the thoracic abdominal region of each final-instar larva of rice stem borer (Chilo suppressalis Walker). […] The test larvae were used in groups of 20 individuals each.
Answers are plain numbers, in %.

CC1(C)[C@H](C=C(Cl)Cl)[C@H]1C(=O)OC(C#N)c1cccc(Oc2ccc(Cl)cc2)c1 (relative stereo) [Compound (G) trans-] : 85
CC1(C)C(C=C(Cl)Cl)C1C(=O)OCc1cccc(Oc2ccc(Cl)cc2)c1 (stereo not drawn) [Compound (1) cis-/trans- = 50:50] : 100
CC1(C)[C@H](C(=O)OC(C#N)c2cccc(Oc3ccc(Cl)cc3)c2)[C@@H]1C=C(Cl)Cl (relative stereo) [Compound (G) cis-] : 40
CC1(C)C(C=C(Cl)Cl)C1C(=O)OC(C#N)c1cccc(Oc2ccc(Br)cc2)c1 (centres unmarked) : 90

Shifting focus to the compound that follows.
Reported mortality at 1 µg/larva, compound CC(C)=CC1C(C(=O)OCc2cccc(Oc3ccccc3)c2)C1(C)C (centres unmarked) : ____
45

====

Protocol: Fish toxicity test with killifish
Format: in vivo, Orizias latipes
Measurement Setup: water, killifish, 25±1° C., read-out: TLm (48 hrs.)
Please provide measured LC50 at 48 h for the entries that follow.

Worked cases, answers included:
CC1(C)C(C=C(Cl)Cl)C1C(=O)OC(C#N)c1cccc(Oc2ccc(Cl)cc2)c1 (stereo not drawn) [Compound (G) cis-/trans- = 50:50] : 0.15 µg/mL
CC1(C)C(C=C(Cl)Cl)C1C(=O)OCc1cccc(Oc2ccc(Cl)cc2)c1 (stereo not drawn) [Compound (1) cis-/trans- = 50:50] : > 10 µg/mL
CC1(C)[C@@H](C=C(Cl)Cl)[C@@H]1C(=O)OCc1cccc(Oc2ccc(Cl)cc2)c1 (relative stereo) [Compound (1) trans-] : > 10 µg/mL
CC1(C)C(C=C(Cl)Cl)C1C(=O)OCc1cccc(Oc2ccccc2)c1 (stereo not drawn) [Compound (B), Permethrin] : 0.04 µg/mL
CC1(C)C(C=C(Cl)Cl)C1C(=O)OC(C#N)c1cccc(Oc2ccccc2)c1 (stereo not drawn) [Compound (C), Cypermethrin] : 0.026 µg/mL

Batch: LC50 at 48 h for all items listed.
1. CC1(C)[C@H](C=C(Cl)Cl)[C@@H]1C(=O)OCc1cccc(Oc2ccc(Cl)cc2)c1 (relative stereo) [Compound (1) cis-]
2. C#CC(OC(=O)[C@@H]1[C@H](C=C(Cl)Cl)C1(C)C)c1cccc(Oc2ccc(Cl)cc2)c1 (relative stereo) [Compound (2) cis-]
3. C#CC(OC(=O)[C@@H]1[C@@H](C=C(Cl)Cl)C1(C)C)c1cccc(Oc2ccc(Cl)cc2)c1 (relative stereo) [Compound (2) trans-]
4. C#CC(OC(=O)C1C(C=C(Cl)Cl)C1(C)C)c1cccc(Oc2ccc(Cl)cc2)c1 (stereo not drawn) [Compound (2) cis-/trans- = 50:50]

> 10 µg/mL
> 10 µg/mL
> 10 µg/mL
> 10 µg/mL

====

Test system: rice stem borers (Chilo suppressalis Walker)
Protocol: Mortality test with rice stem borers by topical application method
Format: in vivo
Measurement Setup: 24 h
Assay Endpoint: mortality at 1 µg/larva (%)
Numbers only, in %.

Take a look at these entries with their results.
CC1(C)[C@@H](C=C(Cl)Cl)[C@@H]1C(=O)OCc1cccc(Oc2ccc(Cl)cc2)c1 (relative stereo) [Compound (1) trans-] : 85
CC1(C)[C@H](C=C(Cl)Cl)[C@@H]1C(=O)OCc1cccc(Oc2ccc(Cl)cc2)c1 (relative stereo) [Compound (1) cis-] : 100
CC1(C)C(C=C(Cl)Cl)C1C(=O)OCc1cccc(Oc2ccccc2)c1 (stereo not shown) : 95
C#CC(OC(=O)C1C(C=C(Cl)Cl)C1(C)C)c1cccc(Oc2ccc(Cl)cc2)c1 (stereo not drawn) [Compound (2) cis-/trans- = 50:50] : 100
CC1(C)C(C=C(Cl)Cl)C1C(=O)OC(C#N)c1cccc(Oc2ccc(Cl)cc2)c1 (stereo not drawn) [Compound (G) cis-/trans- = 50:50] : 90

# per-item lookup of mortality at 1 µg/larva; items listed below
1. CC1(C)C(C=C(Cl)Cl)C1C(=O)OC(C#N)c1cccc(Oc2ccccc2)c1 (stereo not shown)
2. CC1(C)C(C=C(Br)Br)C1C(=O)OC(C#N)c1cccc(Oc2ccccc2)c1 (stereo not shown)

1: 95; 2: 100

====

System: tobacco cutworms (Prodenia litura Fabricius)
Protocol: Mortality test with tobacco cutworms by topical application method
Type: in vivo
Measurement Setup: 24 h, read-out: Pesticidal effect, tobacco cutworm
Assay Endpoint: mortality at 0.0001 mg (%)
One number for each entry, in %.

CC1(C)C(C=C(Cl)Cl)C1C(=O)OC(C#N)c1cccc(Oc2ccc(Br)cc2)c1 (stereo not drawn) : 60
CC1(C)C(C=C(Cl)Cl)C1C(=O)OCc1cccc(Oc2ccccc2)c1 (stereo not drawn) : 85
C#CC(OC(=O)C1C(C=C(Cl)Cl)C1(C)C)c1cccc(Oc2ccc(Cl)cc2)c1 (stereo not drawn) [Compound (2) cis-/trans- = 50:50] : 100
CC(C)=CC1C(C(=O)OCc2cccc(Oc3ccccc3)c2)C1(C)C (stereo not drawn) : 35
CC1(C)C(C=C(Cl)Cl)C1C(=O)OC(C#N)c1cccc(Oc2ccccc2)c1 (stereo not drawn) : 100

Return reported mortality at 0.0001 mg values for all items listed beneath this line.
1. CC(C)C(C(=O)OC(C#N)c1cccc(Oc2ccccc2)c1)c1ccc(Cl)cc1 (stereo not drawn) [Compound (E), Fenvalerate]
2. CC1(C)C(C=C(Cl)Cl)C1C(=O)OC(C#N)c1cccc(Oc2ccc(Cl)cc2)c1 (stereo not drawn) [Compound (G) cis-/trans- = 50:50]
3. CC1(C)C(C=C(Br)Br)C1C(=O)OC(C#N)c1cccc(Oc2ccccc2)c1 (stereo not drawn)
4. CC1(C)C(C=C(Cl)Cl)C1C(=O)OCc1cccc(Oc2ccc(Cl)cc2)c1 (stereo not drawn) [Compound (1) cis-/trans- = 50:50]

100
65
100
100

====

System: houseflies (Musca domestica)
Protocol: Mortality test with houseflies by topical application method
Measurement Setup: 24 h
For each record, write down the corresponding mortality at 0.5 µg/female.
Give bare numbers, in %.

Previously resolved entries follow.
C#CC(OC(=O)C1C(C=C(Cl)Cl)C1(C)C)c1cccc(Oc2ccccc2)c1 (stereo not drawn) : 100
CC1(C)C(C=C(Cl)Cl)C1C(=O)OCc1cccc(Oc2ccc(Cl)c(Cl)c2)c1 (stereo not drawn) : 0
CC1(C)C(C=C(Cl)Cl)C1C(=O)OCc1cccc(Oc2ccccc2Cl)c1 (stereo not drawn) : 30
C#CC(OC(=O)[C@@H]1[C@H](C=C(Cl)Cl)C1(C)C)c1cccc(Oc2ccc(Cl)cc2)c1 (relative stereo) [Compound (2) cis-] : 100
CC1(C)[C@H](C=C(Cl)Cl)[C@@H]1C(=O)OCc1cccc(Oc2ccc(Cl)cc2)c1 (relative stereo) [Compound (1) cis-] : 100

// moving on: another record for mortality at 0.5 µg/female
Form field - read-out: mortality at 0.5 µg/female; system: houseflies (Musca domestica); submitted item: C#CC(OC(=O)[C@@H]1[C@@H](C=C(Cl)Cl)C1(C)C)c1cccc(Oc2ccc(Cl)cc2)c1 (relative stereo) [Compound (2) trans-]
100

====

Please provide measured LC50 at 6 h for the entries that follow.
Protocol: Toxicity test with water-fleas
Type: in vivo, Daphnia pulex
Measurement Setup: water, 25±1° C., read-out: TLm, Water-flea (6 hrs.)

CC1(C)[C@@H](C=C(Cl)Cl)[C@@H]1C(=O)OCc1cccc(Oc2ccc(Cl)cc2)c1 (relative stereo) [Compound (1) trans-] : > 40 µg/mL

Report LC50 at 6 h for every entry below.
1. C#CC(OC(=O)[C@@H]1[C@H](C=C(Cl)Cl)C1(C)C)c1cccc(Oc2ccc(Cl)cc2)c1 (relative stereo) [Compound (2) cis-]
2. CC1(C)C(C=C(Cl)Cl)C1C(=O)OCc1cccc(Oc2ccc(Cl)cc2)c1 (stereo not drawn) [Compound (1) cis-/trans- = 20:80]

1: > 40 µg/mL; 2: > 40 µg/mL
